Source: patent US10100129B2

Target: CD64 (FcgRI) (Homo sapiens, UniProt P12314)
Sequence (P12314 16-374): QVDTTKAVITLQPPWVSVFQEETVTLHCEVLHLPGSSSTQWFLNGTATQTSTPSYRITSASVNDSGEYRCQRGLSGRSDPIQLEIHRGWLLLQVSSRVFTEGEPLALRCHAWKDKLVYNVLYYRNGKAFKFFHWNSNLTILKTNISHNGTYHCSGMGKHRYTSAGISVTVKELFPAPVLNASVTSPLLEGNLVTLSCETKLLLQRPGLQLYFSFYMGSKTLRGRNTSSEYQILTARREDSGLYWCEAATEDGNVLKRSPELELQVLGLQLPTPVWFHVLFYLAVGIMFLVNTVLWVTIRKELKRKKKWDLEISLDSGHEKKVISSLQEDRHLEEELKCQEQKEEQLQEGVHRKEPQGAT
Assay: SPR binding of 1.0 μM antibody to anti-his Fab captured FcgR-his: CD64
For each entry below, report its % Rmax, binding to hCD64 value.
One number for each entry, in %.

molecule: mAb4-IgG2.5 (protein, left off: another chain or arm of the molecule) constant: ASTKGPSVFPLAPSSRSTSESTAALGCLVKDYFPEPVTVSWNSGALTSGVHTFPAVLQSSGLYSLSSVVTVPSSNFGTQTYTCNVDHKPSNTKVDKTVERKCCVECPPCPAPPVAGPSVFLFPPKPKDTLMISRTPEVTCVVVDVSHEDPEVQFNWYVDGVEVHNAKTKPREEQFNSTFRVVSVLTVVHQDWLNGKEYKCKVSNKGLPAPIEKTISKTKGQPREPQVYTLPPSREEMTKNQVSLTCLVKGFYPSDIAVEWESNGQPENNYKTTPPMLDSDGSFFLYSKLTVDKSRWQQGNVFSCSVMHEALHNHYTQKSLSLSPGK
unitText: %
% Rmax, binding to hCD64: 2

molecule: mAb7-IgG2.3G1-AY-V27 (protein, left off: another chain or arm of the molecule) constant: ASTKGPSVFPLAPCSRSTSESTAALGCLVKDYFPEPVTVSWNSGALTSGVHTFPAVLQSSGLYSLSSVVTVPSSNFGTQTYTCNVDHKPSNTKVDKTVERKSCVECPPCPAPELLGGPSVFLFPPKPKDTLMISRTPEVTCVVVDVEHEDPEVKFNWYVDGVEVHNAKTKPREEQYNSTYRVVSVLTVLHQDWLNGKEYKCKVSNKALPAPIEKTISKAKGQPREPQVYTLPPSREEMTKNQVSLTCLVKGFYPSDIAVEWESNGQPENNYKTTPPVLDSDGSFFLYSKLTVDKSRWQQGNVFSCSVMHEALHNHYTQKSLSLSPGK
unitText: %
% Rmax, binding to hCD64: 84

molecule: mAb5-IgG2.5 (protein, left off: another chain or arm of the molecule) constant: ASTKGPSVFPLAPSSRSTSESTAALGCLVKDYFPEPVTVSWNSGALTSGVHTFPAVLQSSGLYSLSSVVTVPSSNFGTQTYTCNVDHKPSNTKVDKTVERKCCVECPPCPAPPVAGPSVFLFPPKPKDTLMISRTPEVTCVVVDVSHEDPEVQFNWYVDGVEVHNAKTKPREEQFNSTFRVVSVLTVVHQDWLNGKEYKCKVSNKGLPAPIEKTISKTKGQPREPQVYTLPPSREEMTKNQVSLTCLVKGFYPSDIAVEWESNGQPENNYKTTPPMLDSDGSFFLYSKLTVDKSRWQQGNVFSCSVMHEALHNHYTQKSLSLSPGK
unitText: %
% Rmax, binding to hCD64: 6

## Input So what's the measured % Rmax, binding to hCD64 for this one? mAb11-IgG2.3 (protein, left off: another chain or arm of the molecule) constant: ASTKGPSVFPLAPCSRSTSESTAALGCLVKDYFPEPVTVSWNSGALTSGVHTFPAVLQSSGLYSLSSVVTVPSSNFGTQTYTCNVDHKPSNTKVDKTVERKSCVECPPCPAPPVAGPSVFLFPPKPKDTLMISRTPEVTCVVVDVSHEDPEVQFNWYVDGVEVHNAKTKPREEQFNSTFRVVSVLTVVHQDWLNGKEYKCKVSNKGLPAPIEKTISKTKGQPREPQVYTLPPSREEMTKNQVSLTCLVKGFYPSDIAVEWESNGQPENNYKTTPPMLDSDGSFFLYSKLTVDKSRWQQGNVFSCSVMHEALHNHYTQKSLSLSPGK
## Output 2
